Assay: modulation of C. elegans fzo-1 (AID 1259413);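 note: fzo-1 mutant C. elegans worms in liquid wells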
Details: C. elegans fzo-1 modulator screen, mean read-out; active compounds read high
Calls of active or inactive are those of the source. The rule behind the calls is not given here.
Give mean signal for every item shown.

These solved cases illustrate the format of a correct answer.
> print(dat)
                                   compound  reported.endpoint  value.reported
1                COc1ccc2cc(CCC(C)=O)ccc2c1        mean signal  213 (inactive)
2                   CC[N+](C)(C)c1cccc(O)c1        mean signal  239 (inactive)
3                Cn1c(=O)c2[nH]cnc2n(C)c1=O        mean signal  256 (inactive)
4                CCN(CC)C(=S)SSC(=S)N(CC)CC        mean signal  249 (inactive)
5  O=C(C1CCCCC1)N1CC(=O)N2CCc3ccccc3C2C1 (centres undefined)        mean signal  236 (inactive)
6                CS(=O)(=O)OCCCCOS(C)(=O)=O        mean signal  241 (inactive)
7  CCOC(=O)C1=C(COCCN)NC(C)=C(C(=O)OC)C1c1ccccc1Cl (centres undefined)        mean signal  214 (inactive)
8                CCN(CC)CCNC(=O)c1ccc(N)cc1        mean signal  241 (inactive)

For every listed record, write down its mean signal.
1. Cc1noc(NS(=O)(=O)c2ccc(N)cc2)c1C
2. NS(=O)(=O)c1cc2c(cc1C(F)(F)F)NC(Cc1ccccc1)NS2(=O)=O (centres undefined)
3. CCCNCC(O)COc1ccccc1C(=O)CCc1ccccc1 (centres undefined)
4. CN=C(NC#N)NCCSCc1nc[nH]c1C
5. CN(C)CCC=C1c2ccccc2CCc2ccccc21

Out:
256 (inactive)
239 (inactive)
272 (inactive)
239 (inactive)
243 (inactive)
